Items are presented alongside their recorded growth.
test system: HCT-116 colon; test: NCI-60 one-dose screen, 48 h (100 = growth as untreated, 0 = no growth, -100 = all killed); conditions: 10 µM unless noted
The panel holds about 83,000 compounds, 20% with a hit somewhere; the sample as a whole holds those more often.
Provide only the numeric value, understood in %.

>>> print(df.to_string())
                  molecule  measured_endpoint  result_number
0  NNC(=O)CNc1ccc2ccccc2c1             growth            107

Problem: Would you mind telling me what growth value was observed for CCCCCc1ccnc(CC(=O)c2ccc(OC)cc2)c1 ?
Solution: 78.2

Problem: Now try CC(=O)OCC(=O)[C@@]1(O)[C@H](C)C[C@H]2[C@@H]3C=C(C)C4=Cc5c(cnn5-c5ccc(F)cc5)C[C@]4(C)[C@H]3[C@@H](O)C[C@@]21C .
Solution: 15.7

Problem: Entry FC(F)(F)c1cccc(-c2[nH]ncc2-c2nnnn2-c2ccccc2)c1 please
Solution: 20.7

----------
test system: OVCAR-4 ovarian; assay: NCI-60 one-dose screen, 48 h; settings: 10 µM unless noted
Compounds without any hit were thinned out: in the full panel of roughly 83,000, 20% have a hit. The source made the active and inactive calls. How the source made its calls: active means growth percent below 10; inactive means the rest.
Reply using exactly one outcome from y (active), n (inactive)

>>> print(df.to_string())
                                   molecule  class
0  Cc1ccccc1-n1c(C)nc2cc(NC(=O)c3ccc(Cl)cc3)ccc2c1=O      n
1  O=C(/C=C1\C(=O)N(Cc2ccc([N+](=O)[O-])cc2)c2ccccc21)c1ccc(OCCN2CCCCC2)cc1      y
2  CCOC(=O)C1C(=O)C(=O)N(C(C)C)C1C(=O)OCC (stereo unspecified)      n
3              O=C(/C=C\c1ccccc1Cl)c1ccccc1      n
4  O=C(Nc1ccc(Cl)c(Cl)c1)O/N=C\c1c(Cl)ccc([N+](=O)[O-])c1Cl      y

Problem: Just curious, what result did CC1(C)NC(=S)NC1=O get here?
Solution: n

Problem: Next molecule: CC1(C)NCCC[C@]2(C)[C@H]3CC=C4[C@@H]5C[C@](C)(COC(=O)c6ccccc6C(=O)O)CC[C@]5(C)CC[C@@]4(C)[C@]3(C)CC[C@@H]12
Solution: n

Problem: Please answer likewise for Cc1[nH]n(C(=S)Nc2nc3cc(Cl)c(F)cc3s2)c(=O)c1N=Nc1ccc(F)c(Cl)c1
Solution: n

----------
test system: KM12 colon; assay: NCI-60 one-dose screen, 48 h; conditions: 10 µM unless noted
Compounds without any hit were thinned out: in the full panel of roughly 83,000, 20% have a hit. Activity calls are given as the source filed them. Rule for the calls: active = growth percent below 10; inactive = the rest.
The reply should be one of these categories: active, inactive

Solved entries (count: 5):
Compound	Tested on	Class
COC(=O)CC(=O)C(=O)OC	KM12 colon	inactive
COc1cc2ncnc(Nc3ccc4c(cnn4C(=O)Nc4ccccc4)c3)c2cc1OC	KM12 colon	inactive
c1ccc(Nc2ccccn2)cc1	KM12 colon	inactive
OC(c1ccccc1)(c1ccccc1)C(F)(F)F	KM12 colon	inactive
CCCC(=O)NNc1[nH]c(-c2ccc(OC)cc2)cc1C(=O)OCC	KM12 colon	inactive

Let us examine a further case.
Problem: How was COCC(=O)NNc1[nH]c(-c2ccc(OC)cc2)cc1C#N classified in this test?
Solution: inactive

----------
growth values for the compounds below.
tested on: COLO 205 colon; assay: NCI-60 one-dose screen, 48 h (100 = growth as untreated, 0 = no growth, -100 = all killed); conditions: 10 µM unless noted
Compounds without any hit were thinned out: in the full panel of roughly 83,000, 20% have a hit. The source made the active and inactive calls. Rule for the calls: active = growth percent below 10; inactive = the rest.

Examples with answers:
In [3]: df
Out[3]:
                                   compound            result
0  O=C1C=C(OCC=C(C(F)(F)F)C(F)(F)F)c2ccccc2C1=O  52.7% (inactive)
1  CC(=O)N1N=C(c2ccc(Cl)cc2)CC1c1cn(-c2ccccc2)nc1-c1ccc([N+](=O)[O-])cc1 (stereo not given)  93.9% (inactive)
2  O=C1Nc2c(c(=O)n(-c3ccccc3)c3ccccc23)C(c2ccc(Cl)cc2)N1 (stereo not given)   107% (inactive)
3            CC(C)(C)c1ccc(OCCOC(=O)CBr)cc1  89.1% (inactive)

Problem: For the compound shown here, CC#Cc1nc(Nc2cc(C)[nH]n2)c2ccccc2n1 , give the reported growth.
Solution: -100% [100 µM] (active)

Problem: Another compound to check: O=C1/C(=C/c2ccc(Cl)cc2)CCC/C1=C\c1ccc(Cl)cc1
Solution: 73.3% (inactive)

Problem: Further, for COc1ccc(CN2C(=O)/C(=C\C(=O)c3ccc(OCCN4CCCC4)cc3)c3ccccc32)cc1 ?
Solution: 83.9% (inactive)

Problem: Repeat with CC(O)CCC(C)[N+](=O)[O-] (stereo not given)
Solution: 111% (inactive)

Problem: And the next one, O=S(=O)(Cc1cccc2c(CS(=O)(=O)c3ccc(Cl)cc3)cccc12)c1ccc(Cl)cc1 ?
Solution: 83% (inactive)

Problem: What do we get for NC(=O)CC(NC(=O)COc1ccc(Cl)cc1Cl)C(=O)O (stereo not given) ?
Solution: 106% (inactive)

----------
tested on: NCI-H226 lung; assay: NCI-60 one-dose screen, 48 h (100 = growth as untreated, 0 = no growth, -100 = all killed); details: 10 µM unless noted
This is part of a sample that, as a whole, favours compounds with a hit. Of some 83,000 tested, about 20% had one in any assay.
Measured endpoint: growth (%)
API: value field is a number in %; no unit string.

Here is how some molecules turned out for growth.
>>> print(df.to_string())
                                   molecule  result_number
0      Clc1ccc(N/N=C(\c2ccccc2)c2ccccn2)nc1           5.46
1  CCCCCCCCCCCCCCCCNC(=S)N/N=C/c1ccc(OC)cc1           98.6
2   Oc1ccc([S+](c2ccc(O)cc2)c2ccc(O)cc2)cc1           88.3
3  CC1Cc2cc(F)ccc2-n2cccc21 (stereo not given)            154

Then this molecule:
Problem: Which measured growth value corresponds to CCCCCCCCCCCCCCCCNC(=S)N/N=C/c1ccc(O)cc1O ?
Solution: 76

----------
tested on: RXF 393 renal; test: NCI-60 one-dose screen, 48 h; settings: 10 µM unless noted
About 83,000 compounds went through this panel and 20% of them were active in at least one assay; those are over-represented in the sample as a whole. The source made the active and inactive calls. Rule for the calls: active = growth percent below 10; inactive = the rest.
I would appreciate it if you answered using one of these outcomes: YES (active), NO (inactive)

Study these solved cases before continuing.
>>> df
                                   compound  class
0  O=C(Nc1cccc2[nH]c(C(F)(F)F)nc12)c1ccc(F)cc1     NO
1  C=C(NC(=O)[C@H](C(C)C)N(C)c1cccc2[nH]ccc12)C(=O)OC     NO
2  Cc1ccc2c(O)c(O)cc(NC(C)CCCN)c2n1 (stereo unspecified)     NO
3  CC(=O)CCS(=O)c1ccccc1 (stereo unspecified)     NO
4  COc1ccc(OC)c(Cn2cc3c(c2-c2ccccc2)CCc2cnoc2-3)c1     NO

Problem: Status in this test for COc1ccccc1CNCCCN1C(=O)c2ccc3c4c(ccc(c24)C1=O)C(=O)N(CCCNCc1ccccc1OC)C3=O ?
Solution: YES

Problem: One more compound: CCOC(=O)C1C(=O)C(=O)N(C(C)C)C1C(=O)OCC (stereo unspecified)
Solution: NO

Problem: Again, but for O=C(Nc1ccc(-n2cc(-c3ccncc3)c(-c3ccc(Cl)c(O)c3)n2)cc1)c1ccc(Cl)c(C(F)(F)F)c1
Solution: YES

Problem: Same question for COc1ccc(-c2nc(SCC(C)C)nc(Nc3ccc([N+](=O)[O-])cc3)c2C#N)cc1 please.
Solution: NO

----------
test system: SN12C renal; assay: NCI-60 one-dose screen, 48 h; settings: 10 µM unless noted
The panel holds about 83,000 compounds, 20% with a hit somewhere; the sample as a whole holds those more often. Calls of active or inactive are those of the source. Rule for the calls: active = growth percent below 10; inactive = the rest.
Can you answer with just one of these options? active, inactive

In [3]: df
Out[3]:
                                   compound    tested_on     class
0  CCCCn1c(Cc2ccc(OC)cc2)nc2cc(OC)c(OC)cc2c1=O  SN12C renal  inactive

Problem: # lookup: test call for N#Cc1c2cccnc2c2nnc3cc(Cl)c(Cl)cc3n12
Solution: inactive

Problem: Try this compound too: CC(C)OC(=O)c1ccc2n1CCCc1cnc(Nc3ccccc3)nc1-2
Solution: inactive

Problem: Thanks! And CC1(c2ccc(Br)cc2)NC(=O)NC1=O (configuration not stated) ?
Solution: inactive

Problem: Also need O=C(Nc1cccc(Cn2c(=O)[nH]c3ccc(Oc4ncccn4)cc3c2=O)c1)c1cccc(F)c1 , thanks.
Solution: inactive

Problem: Another compound to check: Clc1ccc(N/N=C(/c2ccccc2)c2ccccn2)nc1
Solution: inactive

Recorded values, source PubChem BioAssay (NCI).
